Field: IC50. Provide a value for each of the compounds that follow.
- STUDY_TARGET: angiotensin II receptors
- EXPERIMENT_DESCRIPTION: Angiotensin II receptor binding (displacement of 3H-angiotensin II), rat adrenocortical microsomes
- CONDITION_DESCRIPTION: 2 nM 3H-angiotensin II
- Experimental: The source of the angiotensin II receptors utilized in the screen is from rat adrenocortical microsomes. […] The reaction is terminated by the addition of 3 ml of cold assay buffer without albumin and the bound and free radioactivity is separated rapidly through glass-fiber filters prewetted with assay buffer. After two additional 3 ml rinses, the filters are placed in scintillation fluid and counted in a scintillation counter to determine trapped radioactivity.
Give bare numbers, in nM.

CCCCc1nc2ccc(C(CC)OC)cc2c(=O)n1Cc1ccc(-c2ccccc2-c2nnn[nH]2)cc1 (centres unmarked)    5

Moving on to the next compound.
Reported IC50, compound CCCCc1nc2ccc(C(OC)c3ccccc3)cc2c(=O)n1Cc1ccc(-c2ccccc2-c2nnn[nH]2)cc1 (centres unmarked) : ____ 8.6

###

- Test system: angiotensin II (AII) vasopressor response
- EXPERIMENT_DESCRIPTION: AII challenge: antagonism of the vasopressor response of angiotensin II in conscious Okamoto-Aoki SHR
- Assay type: in vivo, rat (Okamoto-Aoki SHR)
- CONDITION_DESCRIPTION: Rattus norvegicus, iv, 2 h, 2 mg/kg iv; AII .05 ug/kg; 120 min
Counter-ions that a name gives are not always drawn.
Respond with met for inhibition in vivo at 2 mg/kg values of 60% and above, not met for values below.

Sample answers from the record:
CCCCc1nc2ccc(C(C)(C)O)cc2c(=O)n1Cc1ccc(-c2ccccc2-c2nnn[nH]2)cc1 [Example 61, monosodium salt]    not met
CCCCc1nc2ccc(C(O)c3ccccc3)cc2c(=O)n1Cc1ccc(-c2ccccc2-c2nnn[nH]2)cc1 (centres unmarked)    met
CCCCc1nc2ccc(C(C)O)cc2c(=O)n1Cc1ccc(-c2ccccc2-c2nnn[nH]2)cc1 (centres unmarked)    met

Exam item: decide whether the reported inhibition in vivo at 2 mg/kg for CCCCc1nc2ccc(C(OC)c3ccccc3)cc2c(=O)n1Cc1ccc(-c2ccccc2-c2nnn[nH]2)cc1 (centres unmarked) is at least 60%. not met

Can you handle CCCCc1nc2ccc(C(C)(C)OC)cc2c(=O)n1Cc1ccc(-c2ccccc2-c2nnn[nH]2)cc1 next? not met

###

- Tested on: angiotensin II (AII) vasopressor response
- EXPERIMENT_DESCRIPTION: AII challenge: antagonism of the vasopressor response of angiotensin II in conscious Okamoto-Aoki SHR
- Type: in vivo, rat (Okamoto-Aoki SHR)
- CONDITION_DESCRIPTION: Rattus norvegicus, iv, 2.5 h, 2 mg/kg iv; AII .1 ug/kg; 150 min
EXPERIMENTAL_ENDPOINT: inhibition in vivo at 2 mg/kg

These solved cases illustrate the format of a correct answer.
CCCCc1nc2ccc(C(OC)c3ccccc3)cc2c(=O)n1Cc1ccc(-c2ccccc2-c2nnn[nH]2)cc1 (stereo not shown)    43%
CCCCc1nc2ccc(C(C)O)cc2c(=O)n1Cc1ccc(-c2ccccc2-c2nnn[nH]2)cc1 (stereo not shown)    27%
CCCCc1nc2ccc(C(C)(C)OC)cc2c(=O)n1Cc1ccc(-c2ccccc2-c2nnn[nH]2)cc1    82%

Query compound follows.
For the compound CCCCc1nc2ccc(C(O)c3ccccc3)cc2c(=O)n1Cc1ccc(-c2ccccc2-c2nnn[nH]2)cc1 (stereo not shown) , what inhibition in vivo at 2 mg/kg is on record? 54%
